conditions: in n-butanol, 318.15 K
assay-endpoint: solubility (mole fraction)
Numbers only.

Req: Param item = NC12CC3CC(C1)CC(O)(C3)C2 ; retrieve measured solubility (mole fraction).
Resp: 0.0868

====

conditions: in water, 323.15 K
assay-endpoint: solubility (mole fraction)
One number for each entry.

Req: Look up solubility (mole fraction) for this molecule: NC12CC3CC(C1)CC(O)(C3)C2
Resp: 0.0486

====

settings: in n-propanol, 278.15 K
assay-endpoint: solubility (mole fraction)

Req: What value of solubility (mole fraction) has been reported for the following compound? NC12CC3CC(C1)CC(O)(C3)C2
Resp: 0.133

====

settings: in THF, 298.15 K
assay-endpoint: solubility (mole fraction)
Answers are plain numbers.

Req: Recorded solubility (mole fraction) for NC12CC3CC(C1)CC(O)(C3)C2 , please?
Resp: 0.0269
